- experimental.details: Octanol–water partition, shake-flask method
- Assay type: physicochemical
- protocol.conditions: 200 μM, n-octanol/water, 2 h mixing; SE in parentheses
measured.endpoint: KOW

# example entries with known answers
1) Oc1ccc([C@H]2Oc3c(c(O)cc(O)c3C(c3ccco3)c3c(O)cc(O)c4c3O[C@H](c3ccc(O)c(O)c3)[C@H](O)C4)C[C@H]2O)cc1O [Compound 6, Epicatechin–furanmethine–epicatechin]: 2.08 (0.00)
2) Oc1ccc(C(c2c(O)cc(O)c3c2O[C@H](c2ccc(O)c(O)c2)[C@@H](O)C3)c2c(O)cc(O)c3c2O[C@H](c2ccc(O)c(O)c2)[C@@H](O)C3)cc1O: 0.79 (0.00)

Let's switch to this compound now.
Entry Oc1cc(O)c2c(c1)O[C@H](c1ccc(O)c(O)c1)[C@H](O)[C@H]2c1c(O)cc(O)c2c1O[C@H](c1ccc(O)c(O)c1)[C@H](O)[C@H]2c1c(O)cc(O)c2c1O[C@H](c1ccc(O)c(O)c1)[C@H](O)C2 [Compound 13, PC C1, reference compound] : reported KOW = ?
0.07 (0.00)
